Cited source: patent US11780826B2

Examples of compounds with documented log10(AC1.4) follow.
# System: Bovine cardiac myofibrils
# ASSAY_OVERVIEW: In vitro model of dose-dependent myofibril ATPase modulation (AC1.4, pyruvate kinase/lactate dehydrogenase-coupled ATPase assay at pCa25)
# Assay type: biochemical
# TEST_CONTEXT: concentration at which ATPase activity was 1.4-fold higher than the bottom of the dose curve, mean of a minimum of two independent tests
Values below are the log10 of the recorded AC1.4, with µM as the unit.

CS(=O)(=O)c1cccc(C(=O)N2[C@@H](C(=O)N[C@@H](c3ccc(Cl)cc3F)C3COC3)C[C@H]3C[C@H]32)c1; -0.35
N#CC1CN(S(=O)(=O)N2CCC[C@H](C(=O)N3CCC[C@@H]3C(=O)N[C@H]3Cc4ccccc43)C2)C1; 0.49
O=C(NCc1ccc(C(F)(F)F)cc1)[C@H]1CCCN1C(=O)c1cccc(S(=O)(=O)N2CC[C@@H](O)C2)c1; 0.47
CS(=O)(=O)c1cccc(C(=O)N2CCCC[C@@H]2C(=O)N[C@@H](c2cc(F)c(Cl)cc2F)C2CC2)c1; -0.75

According to the records, this compound `N#CC1CN(S(=O)(=O)N2CCC[C@H](C(=O)N3C[C@@H]4C[C@@H]4[C@@H]3C(=O)NCc3ccc(C(F)(F)F)cc3)C2)C1` displays log10(AC1.4) of -0.51

According to the records, this compound `CC[C@H](NC(=O)[C@H]1CCCN1C(=O)c1cccc(S(=O)(=O)N2CC(C#N)C2)c1)c1ccc(C(F)(F)F)cc1` displays log10(AC1.4) of -0.94

According to the records, this compound `C[C@@]1(C(=O)N[C@@H](c2cc(F)c(C(F)(F)F)cc2F)C2CC2)CCN1C(=O)c1cccc(S(C)(=O)=O)c1` displays log10(AC1.4) of 0.68

According to the records, this compound `Cc1ccc(CNC(=O)[C@H]2CCCN2C(=O)[C@@H]2CN(S(=O)(=O)N3CC(C#N)C3)CCN2)cc1F` displays log10(AC1.4) of -0.03

According to the records, this compound `CS(=O)(=O)c1cncc(C(=O)N2[C@@H](C(=O)N[C@@H](c3cc(F)c(Cl)cc3F)C(F)F)C[C@H]3C[C@H]32)c1` displays log10(AC1.4) of 0.96

According to the records, this compound `N#CC1CN(S(=O)(=O)c2cccc(C(=O)N3CC(F)(F)C[C@@H]3C(=O)NCc3ccc(C(F)(F)F)nc3)c2)C1` displays log10(AC1.4) of -0.84

According to the records, this compound `CCNc1ccccc1C(=O)N1[C@@H](C(=O)N[C@@H](c2ccc(C(F)(F)F)cc2F)C2COC2)C[C@H]2C[C@H]21` displays log10(AC1.4) of -0.32

According to the records, this compound `CC[C@H](NC(=O)[C@H]1CCCN1C(=O)[C@H]1CCCN(S(=O)(=O)N2CC(C#N)C2)C1)c1ccc(C(F)(F)F)cc1F` displays log10(AC1.4) of -0.12

According to the records, this compound `CC(C)[C@@H](NC(=O)[C@H]1CCCN1C(=O)[C@H]1CCCN(S(=O)(=O)N2CC(C#N)C2)C1)c1ccc(C(F)(F)F)cc1F` displays log10(AC1.4) of -1.70

====

# Test system: Bovine cardiac myofibrils
# ASSAY_OVERVIEW: In vitro model of dose-dependent myofibril ATPase modulation (AC1.4, pyruvate kinase/lactate dehydrogenase-coupled ATPase assay at pCa25)
# Type: biochemical
# TEST_CONTEXT: concentration at which ATPase activity was 1.4-fold higher than the bottom of the dose curve, mean of a minimum of two independent tests
QUANTITY_KIND: AC1.4 (µM)
Numbers only; they are read as µM.

Check out these entries, answers already filled in.
N#CC1CN(S(=O)(=O)c2cccc(C(=O)N3CCC[C@@H]3C(=O)NCc3ccc(Cl)cc3)c2)C1; 0.04337
Cc1c(F)cccc1CNC(=O)[C@H]1CCCN1C(=O)[C@H]1CCCN(S(=O)(=O)N2CC(C#N)C2)C1; 0.7452
Cc1cc(Cl)ccc1CNC(=O)[C@H]1CCCN1C(=O)[C@H]1CCCN(S(=O)(=O)N2CC(C#N)C2)C1; 0.1819
CS(=O)(=O)c1cc(F)cc(C(=O)N2[C@@H](C(=O)N[C@@H](c3ccc(C(F)(F)F)cc3F)C3COC3)C[C@H]3C[C@H]32)c1; 0.4808
O=C(NCc1ccc(C(F)(F)F)cc1)[C@H]1CCCN1C(=O)[C@H]1CCCN(S(=O)(=O)N2CC(F)(C3CC3)C2)C1; 1.8545
CS(=O)(=O)c1cccc(C(=O)N2CCC[C@@H]2C(=O)N[C@@H](c2ccc(Cl)cc2F)C2CC2)c1; 1.887
CS(=O)(=O)c1cccc(C(=O)N2CCC[C@@H]2C(=O)N[C@@H](c2cc(F)c(C(F)(F)F)cc2F)[C@H]2C[C@@H](O)C2)c1; 0.15
N#CC1CN(S(=O)(=O)N2CC3CC2[C@@H](C(=O)N2CCC[C@@H]2C(=O)NCc2ccc(C(F)(F)F)cc2F)C3)C1 (stereo partly shown); 0.3524

According to the records, this compound `CC[C@H](NC(=O)[C@H]1CCCN1C(=O)c1cccc(S(=O)(=O)N2CC(C#N)C2)c1)c1cc(F)cc(F)c1` displays AC1.4 of 0.2792

According to the records, this compound `CS(=O)(=O)N1CC(F)(c2cccc(C(=O)N3CCC[C@@H]3C(=O)N[C@@H](c3ccc(C(F)(F)F)cc3F)C3CC3)c2)C1` displays AC1.4 of 0.7437

According to the records, this compound `O=C(NCc1ccc(C(F)(F)F)cc1)[C@H]1CCCN1C(=O)[C@H]1CCCN(S(=O)(=O)N2CC(CC(F)(F)F)C2)C1` displays AC1.4 of 8.931

According to the records, this compound `N#CC1CN(S(=O)(=O)N2CCC[C@H](C(=O)N3CCC[C@@H]3C(=O)NCc3cccc(Cl)c3F)C2)C1` displays AC1.4 of 1.4675

According to the records, this compound `COc1cc(C(F)(F)F)ccc1[C@H](NC(=O)[C@H]1C[C@H]2C[C@H]2N1C(=O)c1cccc(S(C)(=O)=O)c1)C1CC1` displays AC1.4 of 0.822
